So I've got a bunch of molecules here, and I need their MDR1-MDCK efflux ratio values.
One number for each entry.

>  <molecule.smiles>
Cc1ccc(-c2noc(CCC(=O)N3CCCC3(C)C)n2)cc1F

>  <MDR1-MDCK efflux ratio>
0.535

$$$$
>  <molecule.smiles>
COc1ccc(-c2nc3cc(C)ccc3cc2CN(C)Cc2nccn2C)cc1

>  <MDR1-MDCK efflux ratio>
4.84

$$$$
>  <molecule.smiles>
Cc1ccncc1-c1ccc(-c2ccn[nH]2)cc1

>  <MDR1-MDCK efflux ratio>
0.59

$$$$
>  <molecule.smiles>
Cc1noc(C)c1CCC(=O)Nc1cccnc1

>  <MDR1-MDCK efflux ratio>
7.24

$$$$
>  <molecule.smiles>
CCNC(=O)N1CCc2nc3ccc(F)cn3c(=O)c2C1

>  <MDR1-MDCK efflux ratio>
10.3

$$$$

INPUT: Form field: reported MDR1-MDCK efflux ratio of Cc1cc(C)n2ncc(C(=O)N[C@H]3CC[C@@H](C(C)C)CC3)c2n1
OUTPUT: 0.775

###

Response key: Fulfilled means MDR1-MDCK efflux ratio >= 0.8; Not fulfilled means MDR1-MDCK efflux ratio < 0.8.

>  <molecule.smiles>
O=C(c1ccc(Cl)cc1)N1CCC[C@@H](C(=O)N2CCc3ccccc3C2)C1

>  <class>
Fulfilled

$$$$
>  <molecule.smiles>
Cc1cccnc1NC(=O)Cc1coc2c(C)c(C)ccc12

>  <class>
Not fulfilled

$$$$
>  <molecule.smiles>
O=C(NCC1(N2CCCCC2)CCCC1)c1cnn[nH]1

>  <class>
Fulfilled

$$$$

INPUT: Quick check: does CSc1cnc(N2CCCN(c3ncc(SC)cn3)CC2)nc1 have MDR1-MDCK efflux ratio greater than or equal to 0.8?
OUTPUT: Not fulfilled

###

condition.description: pH 6.8
So I've got a bunch of compounds here, and I need their aqueous solubility values.
Give bare numbers, in mg/mL.

In the examples that follow, each entry is paired with its recorded aqueous solubility.
>  <compound>
Cc1cc(C(=O)NC2CCN(c3ncnc4sc(C)c(C)c34)CC2)on1

>  <aqueous solubility (mg/mL)>
0.00249

$$$$
>  <compound>
CCOC(=O)Cc1c(C)[nH]c2c(-c3ccccc3)cnn2c1=O

>  <aqueous solubility (mg/mL)>
0.0149

$$$$
>  <compound>
CC(=O)N1CCCN(Cc2c(C)nn(C)c2Cl)CC1

>  <aqueous solubility (mg/mL)>
0.0411

$$$$

Could you tell me aqueous solubility for each of these compounds? They are listed below.
1. Cn1ccc(C(=O)N2CCCC(c3cccc(-c4cccc(Cl)c4)n3)C2)n1 (stereo unspecified)
2. Cc1nccc(-c2cccc(NCC(=O)NCC(=O)N3CCCC3)c2)n1
3. O=C(NCc1ccc(F)cc1)C1CCN(C(=O)/C=C/c2ccc(F)cc2)CC1

OUTPUT:
1. 0.0267
2. 0.0696
3. 0.00303

###

Use MDR1-MDCK efflux ratio to assign classes; range list: bucket A = under 0.7, bucket B = from 0.7 up to 3, bucket C = 3 and over

>  <molecule>
O=C(Cc1ccc(F)cc1)NCCn1cccnc1=O

>  <class>
bucket C

$$$$
>  <molecule>
CC(C)c1noc2nc(C3CC3)cc(C(=O)N3CC[C@H](N)C3)c12

>  <class>
bucket C

$$$$
>  <molecule>
COc1ccc(-c2cc(C(C)(C)C)nc(-c3ncccn3)n2)cc1

>  <class>
bucket B

$$$$
>  <molecule>
Cc1nc(Nc2nccs2)cc(C2CN(c3ncccn3)C2)n1

>  <class>
bucket B

$$$$
>  <molecule>
CCN1CCN(S(=O)(=O)Cc2ccc(Cl)c(Cl)c2)CC1

>  <class>
bucket A

$$$$
>  <molecule>
Cc1cc(-c2ccc(N)nc2)cc(C2CCN(C(=O)CCCc3ccc(F)c(C)c3)CC2)n1

>  <class>
bucket B

$$$$

INPUT: Could you tell me which band Cc1ccc(NC(=O)CN(C)C(=O)c2ccccc2F)nc1 belongs to?
OUTPUT: bucket B

INPUT: Could you tell me which band N#CC[C@H](C1CCCC1)n1cc(-c2ncnc3[nH]ccc23)cn1 belongs to?
OUTPUT: bucket C

INPUT: Could you tell me which band Cc1cc(C(=O)N2CCC(C(=O)c3ccnn3C)CC2)sc1C belongs to?
OUTPUT: bucket B

INPUT: Could you tell me which band CN(Cc1cccc(C#N)c1)Cc1ccccc1C#N belongs to?
OUTPUT: bucket A

INPUT: Could you tell me which band O=C(c1ccccn1)N1CCCC(c2cccc(-c3cccc(Cl)c3)n2)C1 (configuration not stated) belongs to?
OUTPUT: bucket B

INPUT: Could you tell me which band O=C(NNc1ccccc1)c1ccncc1 belongs to?
OUTPUT: bucket B

###

condition.description: pH 6.8
Response key: True means aqueous solubility >= 40 µg/mL; False means aqueous solubility < 40 µg/mL.

Some entries whose results are on file:
>  <compound>
COc1ccccc1N1CCN(c2nc(-c3ccc(F)cc3)cc(=O)[nH]2)CC1

>  <class>
False

$$$$
>  <compound>
NCCN1CCN(C/C=C/C(=O)N2CCC[C@@H](n3nc(-c4ccc(Oc5ccccc5)cc4)c4c(N)ncnc43)C2)CC1

>  <class>
False

$$$$
>  <compound>
Cc1cc2c(C(N)=O)cccc2n1-c1nc2c(c(NCc3ccccc3)n1)COCC2

>  <class>
False

$$$$
>  <compound>
Cc1nc(NC(c2nccn2C)C2CC2)c2sccc2n1 (stereo not given)

>  <class>
True

$$$$
>  <compound>
Cc1oc(C)c(C(=O)N2CCNC(=O)C2)c1Br

>  <class>
True

$$$$

INPUT: Quick check: does COc1cc2c(cc1OC)-c1[nH]nc(NCc3c(Cl)cccc3Cl)c1C2=O have aqueous solubility greater than or equal to 40 µg/mL?
OUTPUT: False

INPUT: Quick check: does COCc1cc(-c2nc(CCc3ccccc3)n[nH]2)ccc1OC have aqueous solubility greater than or equal to 40 µg/mL?
OUTPUT: False

###

So I've got a bunch of compounds here, and I need their intrinsic clearance, human liver microsomes values.
Numbers only, in mL/min/kg.

>  <molecule.smiles>
O=C(Nc1ccc2c3c(cccc13)CC2)c1ccnc(-n2cncn2)c1

>  <unit.text>
mL/min/kg

>  <result>
124

$$$$
>  <molecule.smiles>
CCN(Cc1ccncc1)[C@@H]1CN(C(=O)c2ccccc2)C[C@H]1O

>  <unit.text>
mL/min/kg

>  <result>
45.2

$$$$
>  <molecule.smiles>
CCCc1ccc(C(=O)CSc2nncs2)cc1

>  <unit.text>
mL/min/kg

>  <result>
276

$$$$
>  <molecule.smiles>
COC(=O)N1CCCN(C(=O)c2ccc(-c3ccccc3Cl)o2)CC1

>  <unit.text>
mL/min/kg

>  <result>
174

$$$$
>  <molecule.smiles>
N#Cc1cccnc1NCCc1ccc(F)cc1

>  <unit.text>
mL/min/kg

>  <result>
179

$$$$
>  <molecule.smiles>
O=C(Nc1ncccc1OC(F)F)C1CCCCC1

>  <unit.text>
mL/min/kg

>  <result>
61.6

$$$$
>  <molecule.smiles>
CCN(CC)CCCNc1ncc(-c2cc(C)no2)c(-c2ccco2)n1

>  <unit.text>
mL/min/kg

>  <result>
5.13

$$$$
>  <molecule.smiles>
Cn1ccnc1-c1noc(NCc2ccccc2)n1

>  <unit.text>
mL/min/kg

>  <result>
5.04

$$$$
>  <molecule.smiles>
Cc1oc2ncnc(NCc3cc(F)cc4c3OCOC4)c2c1C

>  <unit.text>
mL/min/kg

>  <result>
127

$$$$
>  <molecule.smiles>
O=C(NCCc1csc(N2CCCC2)n1)N1CCSCC1

>  <unit.text>
mL/min/kg

>  <result>
61.9

$$$$

Could you tell me intrinsic clearance, human liver microsomes for each of these compounds? They are listed below.
1. O=c1cc(CN2CCCCc3ccccc32)[nH]c2ccnn12
2. FC(F)(F)COc1ccc(CN2CCc3c(cnn3-c3ccccc3)C2)nn1

OUTPUT:
34.2
22.6

Could you tell me intrinsic clearance, human liver microsomes for each of these compounds? They are listed below.
1. CN(Cc1ccncc1)Cc1cc2ccccc2nc1O
2. Cc1cc(=O)n(C)c2cc(N3C(=O)CC[C@H](NS(=O)(=O)CC(C)C)[C@H]3c3ccc(Cl)cc3)ccc12
3. CN(C)CCOc1ccc(-c2nc(-c3ccncc3)c(-c3ccc4c(c3)CC/C4=N\O)[nH]2)cc1

OUTPUT:
15.4
370
12.7

###

So I've got a bunch of compounds here, and I need their intrinsic clearance, human liver microsomes values.
Numbers only, in L/h/kg.

In the examples that follow, each entry is paired with its recorded intrinsic clearance, human liver microsomes.
>  <compound>
O=C(Cn1cc(NCc2cccc(Cl)c2)cn1)N1CCOCC1

>  <result>
0.354

$$$$
>  <compound>
CC(C)(O)C(=O)N1CCC(c2ccc3c(NCc4ccccc4F)n[nH]c3n2)CC1

>  <result>
0.501

$$$$
>  <compound>
CC(=O)Nc1ccc(C(=O)N2CCCCC2c2nc(N)ncc2-c2ccc(Cl)cc2)cc1 (stereo unspecified)

>  <result>
2.44

$$$$

Could you tell me intrinsic clearance, human liver microsomes for each of these compounds? They are listed below.
1. Cc1ccc(C(=O)C2CCN(CC(=O)NC(=O)Nc3ccccc3)CC2)c(C)c1
2. Cn1c(CNC(=O)Cc2cccc3ccccc23)nc2ccccc21
3. Cc1cc(Nc2ccc(F)cn2)cc(C2CCN(C(=O)COc3ccccc3)C2)n1 (stereo unspecified)

OUTPUT:
3.86
11.2
6.37
